Source: patent US8338465B2

biological target: dihydrolipoamide acyltransferase (DlaT) (Mycobacterium tuberculosis, UniProt P9WIS7); experiment: DlaT inhibition (Dlat IC50); DTNB peroxidase assay with Lpd, DlaT and AhpD; assay type: biochemical; conditions: Dlat IC50 category
Sequence (P9WIS7 whole entry): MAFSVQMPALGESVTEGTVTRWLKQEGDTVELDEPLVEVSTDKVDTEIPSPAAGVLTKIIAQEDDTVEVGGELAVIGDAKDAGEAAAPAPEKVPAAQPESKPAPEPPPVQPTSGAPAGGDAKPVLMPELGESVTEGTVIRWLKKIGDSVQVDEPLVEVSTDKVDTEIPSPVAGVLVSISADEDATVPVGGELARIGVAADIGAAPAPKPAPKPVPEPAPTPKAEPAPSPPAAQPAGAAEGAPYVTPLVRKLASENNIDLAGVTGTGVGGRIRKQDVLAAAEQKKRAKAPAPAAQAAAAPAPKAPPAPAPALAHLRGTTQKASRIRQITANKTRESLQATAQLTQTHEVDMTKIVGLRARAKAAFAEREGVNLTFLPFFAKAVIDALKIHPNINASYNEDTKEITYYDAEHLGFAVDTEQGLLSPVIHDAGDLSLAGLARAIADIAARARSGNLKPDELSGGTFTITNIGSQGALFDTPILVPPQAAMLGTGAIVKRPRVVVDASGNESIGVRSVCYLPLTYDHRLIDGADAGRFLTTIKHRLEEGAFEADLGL
property.name: IC50

// below: answered compounds
1. Cc1ccccc1-c1ccc(C=C2SC(=S)N(C(C)C(=O)O)C2=O)o1 (stereo not drawn) [Compound B97] ... 11 to 40 µM
2. CC(C(=O)O)N1C(=O)C(=Cc2ccc(-c3ccc(F)cc3)o2)SC1=S (stereo not drawn) [Compound B98] ... 41 to 80 µM
3. N#Cc1c(F)cccc1-c1ccc(C=C2SC(=S)N(C(C(=O)O)c3ccccc3)C2=O)o1 (stereo not drawn) [Compound B89] ... 11 to 40 µM

## Input So what's the measured IC50 for this one? O=C(O)C1CCCC(N2C(=O)C(=Cc3ccc(-c4ccccc4F)s3)SC2=S)C1 (stereo not drawn) [Compound C35]
## Output 11 to 40 µM

## Input Data request, read-out IC50, for O=C(O)C1CCC(N2C(=O)C(=Cc3ccc(-c4cccc(C(F)(F)F)c4)o3)SC2=S)CC1 (stereo not drawn) [Compound C17]
## Output < 10 µM

## Input # get_value(readout='IC50', item= Cc1cc(N(C)C)ccc1-c1ccc(C=C2SC(=S)N(C3CCCC(C(=O)O)C3)C2=O)o1 (stereo not drawn) [Compound C29] )
## Output 11 to 40 µM

## Input IC50 lookup needed for O=C(O)c1ccccc1NN1C(=O)C(=Cc2ccc(-c3ccccc3Cl)o2)SC1=S [Compound D1] , thanks.
## Output < 10 µM

## Input Form field: reported IC50 of O=C(O)C(c1ccccc1)N1C(=O)C(=Cc2ncc(-c3cccc(C(F)(F)F)c3)s2)SC1=S (stereo not drawn) [Compound B25]
## Output < 10 µM

## Input Could you share which IC50 value was measured for O=C(O)[C@@H](c1ccccc1)N1C(=O)C(=Cc2ccc(-c3ccc(Cl)cc3)o2)SC1=S [Compound B36] ?
## Output < 10 µM
